Experiment: Proof-of-concept dog PK study, plasma levels of GEM-IB and metabolites by HPLC-MS/MS
Assay type: in vivo, beagle dogs
Settings: beagle, dog, plasma, iv, 5 mg/kg, after GEM-IB 5 mg/kg 30 min i.v. infusion, read-out: T1/2 (converted)
MEASURED_PROPERTY: half-life (min)
Express the result in min but write the number alone.

Example entries begin here.
COMPOUND: CCCCCN(C)CCC(O)(P(=O)(O)O)P(=O)(O)OP(=O)(O)OC[C@H]1O[C@@H](n2ccc(N)nc2=O)C(F)(F)[C@@H]1O (some centres unmarked) [GEM-IB]
half-life / min: 0.84
//
COMPOUND: Nc1ccn([C@@H]2O[C@H](CO)[C@@H](O)C2(F)F)c(=O)n1 [GEM, gemcitabine]
half-life / min: 90.7
//
COMPOUND: O=c1ccn([C@@H]2O[C@H](COP(=O)(O)O)[C@@H](O)C2(F)F)c(=O)[nH]1 [dFdUMP]
half-life / min: 5.94
//
COMPOUND: O=c1ccn([C@@H]2O[C@H](CO)[C@@H](O)C2(F)F)c(=O)[nH]1 [dFdU, 2′,2′-difluoro-2′-deoxyuridine]
half-life / min: 591

Query: Return half-life for the following compound: CCCCCN(C)CCC(O)(P(=O)(O)O)P(=O)(O)O [IB, ibandronate]
Response: 55.9
